Biological target: T1, Human TNFR2-His (Sino 10417-H08H) (human, UniProt P20333 23-257)
T1 construct: Bought protein; also called recombinant human TNFR2 protein; not shown: His tag
T1 sequence (looked up): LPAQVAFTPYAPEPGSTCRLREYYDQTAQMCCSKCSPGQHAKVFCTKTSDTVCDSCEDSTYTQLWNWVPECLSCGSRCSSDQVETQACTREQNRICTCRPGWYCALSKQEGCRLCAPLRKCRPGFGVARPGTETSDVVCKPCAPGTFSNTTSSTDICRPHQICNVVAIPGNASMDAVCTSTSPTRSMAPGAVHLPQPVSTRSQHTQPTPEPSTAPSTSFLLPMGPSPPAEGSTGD
Experiment: ELISA, human TNFR2-His coated; EC50 against 001-WT
readout name: % Relative activity (WT antibody/test antibody) (%)
Express it in %; write the number only.

Form field % Relative activity (WT antibody/test antibody), entry 001-Hu1 (antibody, V domains shown, Humanized form of #001; also called VH1 + VL1) VH: EVQLVESGGGLVQPGGSLRLSCAASGFAFSTYDLSWVRQAPGKGLEWVAYINNGGISTYYSDTVKGRFTISRDNAKNTLYLQMNSLRAEDTAVYYCVRGPFYGSANYFDYWGQGTLVTVSS VL: DIQMTQSPSSLSASVGDRVTITCRTSESIYSNLPWYQQKPGKAPKLLLYDATKLAEGVPSRFSGSGSGTDYTLTISSLQPEDFATYYCQHFWVTPWTFGQGTKVEIK : 104
